Value source: PubChem BioAssay AID1963827

Tested on: 994946-033-R-J1-PDC complex spheroid viability
Test: Anticancer human tumor 994946-033-R-J1-PDC patient-derived melanoma cell line growth inhibition [POLQ]
Settings: second compound 10 µM; first compound 0.0316 µM; stronger effect = lower value
Procedure: Multicellular complex tumor spheroid response to Polymerase (POL) inhibitors (novobiocin, ART-558, RP6685) in combination with a variety of drugs and investigational agents in selected tumor cell lines The POL inhibitors (novobiocin, ART-558, and RP6685) were evaluated both individually and in combination with standard of care and investigational anticancer small molecules within a complex spheroid model of solid tumors. . […]
Assignment: determine reported viability, T/C for the given compounds.
Give bare numbers, in %.

Answered cases to consult:
COc1cc2cc(C(=O)CCC(=O)O)sc2cc1OC + Nc1ccc(C#CCN(C(=O)Cc2ncc(C(F)(F)F)cc2C(F)(F)F)c2ccc(F)cc2)nn1 | 80.5
CC1COCCN1c1cc(-c2ccnn2C)c2ccnc(-c3ccn[nH]3)c2n1 (stereo unspecified) + COC1C(OC(N)=O)C(O)C(Oc2ccc3c(O)c(NC(=O)c4ccc(O)c(CC=C(C)C)c4)c(=O)oc3c2C)OC1(C)C | 69.2
Nc1ccn(C2OC(CO)C(O)C2(F)F)c(=O)n1 (stereo unspecified) + Cc1cccc(N(C)C(=O)C2C(O)CCN2c2nc(C)cc(C(F)(F)F)c2C#N)c1 | 48.6
C#Cc1c(F)ccc2cc(O)cc(-c3ncc4c(N5CC6CCC(C5)N6)nc(OCC56CCCN5CC(F)C6)nc4c3F)c12 (stereo unspecified) + Cc1cccc(N(C)C(=O)C2C(O)CCN2c2nc(C)cc(C(F)(F)F)c2C#N)c1 | 111

Report viability, T/C for every entry below.
1. CNCc1ccc(-c2[nH]c3cc(F)cc4c3c2CCNC4=O)cc1 + Nc1ccc(C#CCN(C(=O)Cc2ncc(C(F)(F)F)cc2C(F)(F)F)c2ccc(F)cc2)nn1
2. CC[C@@]1(O)C(=O)OCc2c1cc1n(c2=O)Cc2cc3c(CN(C)C)c(O)ccc3nc2-1 + Nc1ccc(C#CCN(C(=O)Cc2ncc(C(F)(F)F)cc2C(F)(F)F)c2ccc(F)cc2)nn1
3. CCc1c2c(nc3ccc(O)cc13)-c1cc3c(c(=O)n1C2)COC(=O)[C@]3(O)CC + Nc1ccc(C#CCN(C(=O)Cc2ncc(C(F)(F)F)cc2C(F)(F)F)c2ccc(F)cc2)nn1
4. COc1cccc(OCCCN)c1-c1cc(Nc2cnc(C#N)cn2)n[nH]1 + Cc1cccc(N(C)C(=O)C2C(O)CCN2c2nc(C)cc(C(F)(F)F)c2C#N)c1
5. CNCc1ccc(-c2[nH]c3cc(F)cc4c3c2CCNC4=O)cc1 + COC1C(OC(N)=O)C(O)C(Oc2ccc3c(O)c(NC(=O)c4ccc(O)c(CC=C(C)C)c4)c(=O)oc3c2C)OC1(C)C

**A:**
1. 72
2. 47.7
3. 5.91
4. 86.7
5. 117

* * *

test system: 994946-033-R-J1-PDC complex spheroid viability; experiment: Anticancer human tumor 994946-033-R-J1-PDC cell line growth inhibition [POLQ]; details: second compound 10 µM; first compound 0.0316 µM; active means viability on the fitted dose curve at most 10% of control; inactive means the rest;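 further: spheroids exposed to drugs for 7 days; 100% = DMSO vehicle treated spheroids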
Assign a class; possible classes are active, inactive

Study these solved cases before continuing.
O=C(c1cc(Cc2n[nH]c(=O)c3ccccc23)ccc1F)N1CCN(C(=O)C2CC2)CC1 + Cc1cccc(N(C)C(=O)C2C(O)CCN2c2nc(C)cc(C(F)(F)F)c2C#N)c1 | inactive
CCc1c2c(nc3ccc(O)cc13)-c1cc3c(c(=O)n1C2)COC(=O)[C@]3(O)CC + COC1C(OC(N)=O)C(O)C(Oc2ccc3c(O)c(NC(=O)c4ccc(O)c(CC=C(C)C)c4)c(=O)oc3c2C)OC1(C)C | active

Below: the item to evaluate.
**Q:** Hi, do you know how COc1cc(C2c3cc4c(cc3C(OC3OC5COC(C)OC5C(O)C3O)C3COC(=O)C23)OCO4)cc(OC)c1O (stereo not drawn) + Nc1ccc(C#CCN(C(=O)Cc2ncc(C(F)(F)F)cc2C(F)(F)F)c2ccc(F)cc2)nn1 came out in this test?
**A:** inactive

* * *

Assignment: determine reported viability, T/C for the given compounds.
system: 994946-033-R-J1-PDC complex spheroid viability; experiment: Anticancer human tumor 994946-033-R-J1-PDC cell line growth inhibition [POLQ]; conditions: second compound 0.316 µM; first compound 0.001 µM; stronger effect = lower value;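 further: spheroids exposed to drugs for 7 days; 100% = DMSO vehicle treated spheroids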
One number for each entry, in %.

CC[C@@]1(O)C(=O)OCc2c1cc1n(c2=O)Cc2cc3c(CN(C)C)c(O)ccc3nc2-1 + Cc1cccc(N(C)C(=O)C2C(O)CCN2c2nc(C)cc(C(F)(F)F)c2C#N)c1 | 106
Cn1ncnc1[C@H]1c2n[nH]c(=O)c3cc(F)cc(c23)N[C@@H]1c1ccc(F)cc1 + Nc1ccc(C#CCN(C(=O)Cc2ncc(C(F)(F)F)cc2C(F)(F)F)c2ccc(F)cc2)nn1 | 48.7

--- query ---
viability, T/C in this record for Cn1ncnc1[C@H]1c2n[nH]c(=O)c3cc(F)cc(c23)N[C@@H]1c1ccc(F)cc1 + Cc1cccc(N(C)C(=O)C2C(O)CCN2c2nc(C)cc(C(F)(F)F)c2C#N)c1 : 118

* * *

system: 994946-033-R-J1-PDC complex spheroid viability; assay: Anticancer human tumor 994946-033-R-J1-PDC cell line growth inhibition [POLQ]; conditions: second compound 10 µM; first compound 0.0316 µM; stronger effect = lower value;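 further: spheroids exposed to drugs for 7 days; 100% = DMSO vehicle treated spheroids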
REPORTED_ENDPOINT: viability, T/C (%)
Give bare numbers, in %.

CC1COCCN1c1cc(C2(S(C)(=N)=O)CC2)nc(-c2ccnc3[nH]ccc23)n1 (stereo unspecified) + Nc1ccc(C#CCN(C(=O)Cc2ncc(C(F)(F)F)cc2C(F)(F)F)c2ccc(F)cc2)nn1 | 127
CCCS(=O)(=O)Nc1ccc(F)c(C(=O)c2c[nH]c3ncc(-c4ccc(Cl)cc4)cc23)c1F + Nc1ccc(C#CCN(C(=O)Cc2ncc(C(F)(F)F)cc2C(F)(F)F)c2ccc(F)cc2)nn1 | 114
COc1cc2cc(C(=O)CCC(=O)O)sc2cc1OC + Cc1cccc(N(C)C(=O)C2C(O)CCN2c2nc(C)cc(C(F)(F)F)c2C#N)c1 | 97.6

Report viability, T/C for every entry below.
1. CC1COCCN1c1cc(C2(S(C)(=N)=O)CC2)nc(-c2ccnc3[nH]ccc23)n1 (stereo unspecified) + COC1C(OC(N)=O)C(O)C(Oc2ccc3c(O)c(NC(=O)c4ccc(O)c(CC=C(C)C)c4)c(=O)oc3c2C)OC1(C)C
2. O=c1[nH]cc(F)c(=O)[nH]1 + Nc1ccc(C#CCN(C(=O)Cc2ncc(C(F)(F)F)cc2C(F)(F)F)c2ccc(F)cc2)nn1
3. C#Cc1c(F)ccc2cc(O)cc(-c3ncc4c(N5CC6CCC(C5)N6)nc(OCC56CCCN5CC(F)C6)nc4c3F)c12 (stereo unspecified) + COC1C(OC(N)=O)C(O)C(Oc2ccc3c(O)c(NC(=O)c4ccc(O)c(CC=C(C)C)c4)c(=O)oc3c2C)OC1(C)C
4. O=c1[nH]cc(F)c(=O)[nH]1 + COC1C(OC(N)=O)C(O)C(Oc2ccc3c(O)c(NC(=O)c4ccc(O)c(CC=C(C)C)c4)c(=O)oc3c2C)OC1(C)C

**A:**
103
111
94.8
108

Report viability, T/C for every entry below.
1. CC1COCCN1c1cc(-c2ccnn2C)c2ccnc(-c3ccn[nH]3)c2n1 (stereo unspecified) + Cc1cccc(N(C)C(=O)C2C(O)CCN2c2nc(C)cc(C(F)(F)F)c2C#N)c1
2. CC[C@@]1(O)C(=O)OCc2c1cc1n(c2=O)Cc2cc3c(CN(C)C)c(O)ccc3nc2-1 + Cc1cccc(N(C)C(=O)C2C(O)CCN2c2nc(C)cc(C(F)(F)F)c2C#N)c1
3. CC1COCCN1c1cc(C2(O)CC3CCC(C2)O3)c2cnn(-c3ccn[nH]3)c2n1 (stereo unspecified) + COC1C(OC(N)=O)C(O)C(Oc2ccc3c(O)c(NC(=O)c4ccc(O)c(CC=C(C)C)c4)c(=O)oc3c2C)OC1(C)C
4. COc1ccc([C@@H](O)c2cc(-c3ncnc4cc(N5CCOCC5)ccc34)c(F)cc2Cl)nn1 + Nc1ccc(C#CCN(C(=O)Cc2ncc(C(F)(F)F)cc2C(F)(F)F)c2ccc(F)cc2)nn1

**A:**
1. 81.8
2. 32.7
3. 56.8
4. 116

* * *

tested on: 994946-033-R-J1-PDC complex spheroid viability; experiment: Anticancer human tumor 994946-033-R-J1-PDC cell line growth inhibition [POLQ]; conditions: second compound 0.0316 µM; first compound 0.316 µM; stronger effect = lower value;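 further: spheroids exposed to drugs for 7 days; 100% = DMSO vehicle treated spheroids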
Simple rule here: viability, T/C less than 40% is 1, otherwise 0.

Study these solved cases before continuing.
C=CCn1c(=O)c2cnc(Nc3ccc(N4CCN(C)CC4)cc3)nc2n1-c1cccc(C(C)(C)O)n1 + Nc1ccc(C#CCN(C(=O)Cc2ncc(C(F)(F)F)cc2C(F)(F)F)c2ccc(F)cc2)nn1 | 0
C#Cc1c(F)ccc2cc(O)cc(-c3ncc4c(N5CC6CCC(C5)N6)nc(OCC56CCCN5CC(F)C6)nc4c3F)c12 (stereo unspecified) + COC1C(OC(N)=O)C(O)C(Oc2ccc3c(O)c(NC(=O)c4ccc(O)c(CC=C(C)C)c4)c(=O)oc3c2C)OC1(C)C | 0
CC1COCCN1c1cc(C2(S(C)(=N)=O)CC2)nc(-c2ccnc3[nH]ccc23)n1 (stereo unspecified) + Cc1cccc(N(C)C(=O)C2C(O)CCN2c2nc(C)cc(C(F)(F)F)c2C#N)c1 | 0

**Q:** Would you kindly verify if viability, T/C of O=C(Nc1ccc(O)c(NS(=O)(=O)c2ccc(F)cc2)c1)c1ccc(-c2ccccc2)cc1 + COC1C(OC(N)=O)C(O)C(Oc2ccc3c(O)c(NC(=O)c4ccc(O)c(CC=C(C)C)c4)c(=O)oc3c2C)OC1(C)C is strictly less than 40%?
**A:** 0

**Q:** Would you kindly verify if viability, T/C of CNCc1ccc(-c2[nH]c3cc(F)cc4c3c2CCNC4=O)cc1 + COC1C(OC(N)=O)C(O)C(Oc2ccc3c(O)c(NC(=O)c4ccc(O)c(CC=C(C)C)c4)c(=O)oc3c2C)OC1(C)C is strictly less than 40%?
**A:** 0

**Q:** Would you kindly verify if viability, T/C of O=c1[nH]cc(F)c(=O)[nH]1 + Cc1cccc(N(C)C(=O)C2C(O)CCN2c2nc(C)cc(C(F)(F)F)c2C#N)c1 is strictly less than 40%?
**A:** 0

**Q:** Would you kindly verify if viability, T/C of COc1cccc(OCCCN)c1-c1cc(Nc2cnc(C#N)cn2)n[nH]1 + Cc1cccc(N(C)C(=O)C2C(O)CCN2c2nc(C)cc(C(F)(F)F)c2C#N)c1 is strictly less than 40%?
**A:** 1

**Q:** Would you kindly verify if viability, T/C of CC1COCCN1c1cc(C2(O)CC3CCC(C2)O3)c2cnn(-c3ccn[nH]3)c2n1 (stereo unspecified) + Cc1cccc(N(C)C(=O)C2C(O)CCN2c2nc(C)cc(C(F)(F)F)c2C#N)c1 is strictly less than 40%?
**A:** 1

**Q:** Would you kindly verify if viability, T/C of COc1cccc(OCCCN)c1-c1cc(Nc2cnc(C#N)cn2)n[nH]1 + Nc1ccc(C#CCN(C(=O)Cc2ncc(C(F)(F)F)cc2C(F)(F)F)c2ccc(F)cc2)nn1 is strictly less than 40%?
**A:** 1

**Q:** Would you kindly verify if viability, T/C of COc1cc(C2c3cc4c(cc3C(OC3OC5COC(C)OC5C(O)C3O)C3COC(=O)C23)OCO4)cc(OC)c1O (stereo unspecified) + Cc1cccc(N(C)C(=O)C2C(O)CCN2c2nc(C)cc(C(F)(F)F)c2C#N)c1 is strictly less than 40%?
**A:** 0

**Q:** Would you kindly verify if viability, T/C of CC(C)n1c(=O)n(C)c2cnc3cc(F)c(-c4ccc(OCCCN5CCCCC5)nc4)cc3c21 + Nc1ccc(C#CCN(C(=O)Cc2ncc(C(F)(F)F)cc2C(F)(F)F)c2ccc(F)cc2)nn1 is strictly less than 40%?
**A:** 0

**Q:** Would you kindly verify if viability, T/C of COc1cccc2c1C(=O)c1c(O)c3c(c(O)c1C2=O)CC(O)(C(=O)CO)CC3OC1CC(N)C(O)C(C)O1 (stereo unspecified) + Nc1ccc(C#CCN(C(=O)Cc2ncc(C(F)(F)F)cc2C(F)(F)F)c2ccc(F)cc2)nn1 is strictly less than 40%?
**A:** 1

**Q:** Would you kindly verify if viability, T/C of CCc1c2c(nc3ccc(O)cc13)-c1cc3c(c(=O)n1C2)COC(=O)[C@]3(O)CC + COC1C(OC(N)=O)C(O)C(Oc2ccc3c(O)c(NC(=O)c4ccc(O)c(CC=C(C)C)c4)c(=O)oc3c2C)OC1(C)C is strictly less than 40%?
**A:** 1

**Q:** Would you kindly verify if viability, T/C of CC1COCCN1c1cc(-c2ccnn2C)c2ccnc(-c3ccn[nH]3)c2n1 (stereo unspecified) + COC1C(OC(N)=O)C(O)C(Oc2ccc3c(O)c(NC(=O)c4ccc(O)c(CC=C(C)C)c4)c(=O)oc3c2C)OC1(C)C is strictly less than 40%?
**A:** 1
